Test system: Yap1 mRNA
protocol notes: Dose-dependent inhibition of human Yap1 in A-431 cells (Example 6, 5,000 cells per well, RTS4814)
Format: cell-based
cond: Table 54; A-431 cells, free uptake, 1333 nM, approximately 48 hours, RTS4814
Strand notation (5' to 3'): a small letter for the sugar, then the base; units joined by * are phosphorothioate-linked, units joined directly phosphodiester-linked; [ ] holds rarer units or linkages, { } end groups; capitals alone tell only the bases. k = constrained ethyl (cEt); [5mC] = 5-methylcytosine; d = 2'-deoxy (DNA)
Classification field: Fulfilled = % UTC 1333 nM at or over 60 % UTC; Not fulfilled = % UTC 1333 nM under 60 % UTC.

substance	group label
716493 (antisense kA*k[5mC]*kA*dT*dT*dG*dA*dA*dA*dG*dA*d[5mC]*d[5mC]*k[5mC]*kT*kT) [compound 716493]	Fulfilled
716454 (antisense k[5mC]*kG*kA*dG*dA*dT*dT*dT*dA*dA*dA*dT*dA*kA*kG*kG) [compound 716454]	Not fulfilled
716424 (antisense kG*k[5mC]*kA*dA*dT*dG*dG*dA*d[5mC]*dA*dA*dG*dG*kA*kA*kG) [compound 716424]	Not fulfilled
716376 (k[5mC]*kG*kA*dA*dG*dA*dT*dG*d[5mC]*dT*dG*dA*dG*k[5mC]*kT*kG; antisense) [compound 716376]	Fulfilled
716481 (antisense kT*k[5mC]*kA*dG*d[5mC]*dA*dT*dA*dG*dA*dA*dG*dT*kA*kG*kG) [compound 716481]	Not fulfilled
715414 (kA*kA*k[5mC]*dA*dT*dG*d[5mC]*dT*dG*dT*dG*dG*dA*kG*kT*k[5mC]; antisense) [compound 715414]	Fulfilled
716505 (antisense kG*kA*kT*dT*dT*dA*dA*dT*d[5mC]*dT*dT*dT*d[5mC]*kT*kG*k[5mC]) [compound 716505]	Fulfilled
715558 (k[5mC]*kA*kG*dG*dA*dA*dG*dT*dT*dA*dT*dT*d[5mC]*kA*kG*k[5mC]; antisense) [compound 715558]	Fulfilled
716496 (antisense kG*kA*kA*dG*dA*dG*dA*dT*dT*dT*dT*dA*dT*kG*k[5mC]*k[5mC]) [compound 716496]	Fulfilled
716484 (antisense k[5mC]*kA*k[5mC]*dT*dT*dT*dT*d[5mC]*d[5mC]*dA*dG*d[5mC]*dT*kA*kA*k[5mC]) [compound 716484]	Fulfilled
716502 (antisense k[5mC]*kA*k[5mC]*dA*dG*dT*dG*dA*dT*dT*dG*d[5mC]*dA*kT*kT*kT) [compound 716502]	Not fulfilled
715471 (kT*kA*kT*d[5mC]*dT*dA*dG*d[5mC]*dT*dT*dG*dG*dT*kG*kG*k[5mC]; antisense) [compound 715471]	Fulfilled

====

# maps each entry to its UCRE
protocol notes: Cynomolgus monkey tolerability, urine analysis (Example 34)
cond: cynomolgus monkeys, 35 mg/kg subcutaneously, day 44
measurement kind: UCRE (mg/dL)

substance	measurement kind	endpoint result
958499 (ATTAGAGTATGTGGCA; 3-10-3 cEt gapmer, further chemistry not given here) [compound 958499]	UCRE	60
1076453 (GTAATATTGCAATCTG; 3-10-3 cEt gapmer, further chemistry not given here) [compound 1076453]	UCRE	50
1198831 (CACTTTTACATTAGGA; chemically modified gapmer, further chemistry not given here) [compound 1198831]	UCRE	46
1198440 (AAGTGTATGTCAGAAG; cEt, 2'-MOE, 5-methylcytosine, phosphorothioate modifications, further chemistry not given here) [compound 1198440]	UCRE	53
1198728 (TATTAGAGTATGTGGC; modified gapmer, further chemistry not given here) [compound 1198728]	UCRE	70
1198623 (CTAAGTAAGGTTTCCC; modified gapmer, further chemistry not given here) [compound 1198623]	UCRE	44
1197270 (TTAAAGTGTATGTCAG; cEt gapmer with 2'-OMe nucleoside, phosphorothioate, further chemistry not given here) [compound 1197270]	UCRE	56
1198605 (GTAATATTGCAATCTG; modified gapmer, further chemistry not given here) [compound 1198605]	UCRE	69
1198439 (AGTGTATGTCAGAAGA; sugar, 5-methylcytosine, phosphorothioate modifications, further chemistry not given here) [compound 1198439]	UCRE	68
1198872 (TGTATGTCAGAAGAGT; chemically modified gapmer, further chemistry not given here) [compound 1198872]	UCRE	111
